List of pIC50 values.
# measured_on: Tel-FGFR4 (Homo sapiens (Human), UniProt P22455)
# Sequence (P22455 other isoform, or with tags, fused parts or gaps): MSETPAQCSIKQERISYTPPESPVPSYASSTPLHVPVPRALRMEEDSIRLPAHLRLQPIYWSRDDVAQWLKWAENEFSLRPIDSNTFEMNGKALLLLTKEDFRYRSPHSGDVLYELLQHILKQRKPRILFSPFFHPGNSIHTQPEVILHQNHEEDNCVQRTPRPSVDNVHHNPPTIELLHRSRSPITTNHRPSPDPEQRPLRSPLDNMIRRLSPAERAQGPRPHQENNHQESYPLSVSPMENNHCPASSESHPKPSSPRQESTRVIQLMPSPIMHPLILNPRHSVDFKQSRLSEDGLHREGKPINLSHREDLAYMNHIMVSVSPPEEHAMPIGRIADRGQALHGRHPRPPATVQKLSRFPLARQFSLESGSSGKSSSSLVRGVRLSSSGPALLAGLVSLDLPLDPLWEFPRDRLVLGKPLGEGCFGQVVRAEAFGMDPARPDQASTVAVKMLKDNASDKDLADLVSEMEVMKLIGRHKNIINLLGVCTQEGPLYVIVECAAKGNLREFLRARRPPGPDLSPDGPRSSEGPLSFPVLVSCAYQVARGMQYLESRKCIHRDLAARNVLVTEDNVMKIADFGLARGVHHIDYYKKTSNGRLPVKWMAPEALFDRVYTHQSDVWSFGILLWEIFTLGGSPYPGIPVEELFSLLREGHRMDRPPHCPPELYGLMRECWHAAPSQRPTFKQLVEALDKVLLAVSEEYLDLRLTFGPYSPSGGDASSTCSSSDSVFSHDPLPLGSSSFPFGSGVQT
# assay_details: In vitro cellular kinase assay for FGFR4 (BaF3-Tel-FGFR4 cells, MSD capture ELISA of tyrosine phosphorylation)
# Format: cell-based
# test_parameters: Cellular BaF3 FGFR4 assay; read-out: Cellular IC50
// scale note: pIC50 = -log10(conc_M); give the bare number

Past entries and their recorded results:
molecule | measured_on | pIC50
CC(C)Oc1cc(NC(=O)N2CCCc3cc(CN(C)C(=O)C(C)C)c(C=O)nc32)ncc1C#N | Tel-FGFR4 (Homo sapiens (Human), UniProt P22455) | 7.90
COCCNc1cc(NC(=O)N2CCCc3cc(CN4C(=O)CN(C)CC4(C)C)c(C=O)nc32)ncc1C#N | Tel-FGFR4 (Homo sapiens (Human), UniProt P22455) | 7.96
COCCOc1cc(NC(=O)N2CCCc3cc(CN4CCNCC4=O)c(C=O)nc32)ncc1C#N [trifluoroacetate] | Tel-FGFR4 (Homo sapiens (Human), UniProt P22455) | 7.25
CC(C)Oc1cc(NC(=O)N2c3nc(C=O)c(Br)cc3CC[C@H]2C)ncc1C#N | Tel-FGFR4 (Homo sapiens (Human), UniProt P22455) | 6.77
CC(C)Nc1cc(NC(=O)N2CCCc3cc(CO)c(C=O)nc32)ncc1C#N | Tel-FGFR4 (Homo sapiens (Human), UniProt P22455) | 8.07

response.value for COCCNc1cc(NC(=O)N2CCCc3cc(-c4ccncc4)c(C=O)nc32)ncc1C#N (field: pIC50) = 7.84

Lab note: measured pIC50 of CC(C)Oc1cc(NC(=O)N2CCCc3cc(CN4CCNC(=O)C4)c(C=O)nc32)ncc1C#N was 7.63

Query CC(C)Oc1cc(NC(=O)N2CCCc3cc(CN4CCNCC4=O)c(C=O)nc32)ncc1C#N yields pIC50 of 8.00

molecule COC[C@H](C)Nc1cc(NC(=O)N2CCCc3cc(CN4CCCC4=O)c(C=O)nc32)ncc1C#N , pIC50 observed: 8.31

Kindly note the recorded pIC50 for COC[C@H](C)Oc1cc(NC(=O)N2CCCc3cc(CN(C)C(C)=O)c(C=O)nc32)ncc1C#N , which is 7.92

Entry N#Cc1cnc(NC(=O)N2CCCc3cc(CN4CC[C@H](O)C4=O)c(C=O)nc32)cc1OCC(F)F ; pIC50 = 7.87

Reported pIC50 of CCNc1cc(NC(=O)N2CCCc3cc(CN(C)C(=O)CN(C)C)c(C=O)nc32)ncc1C#N : 8.44

Recorded pIC50 (molecule COC[C@H](C)Nc1cc(NC(=O)N2CCCc3cc(CN4CCOCC4=O)c(C=O)nc32)ncc1C#N ): 8.24
